Entries and their GI50
# Assay Text: Cytotoxicity against human PC3 cells assessed as growth inhibition after 48 hrs by SRB assay
# Type: functional
# Details: PC-3, 48 h
Numbers only; they are read as nM.

# count of solved cases: 3
Test Smiles: COc1ccc(CN2c3ccccc3Sc3ccccc32)cc1O
Unit Name: nM
GI50: 503

Test Smiles: COc1ccc(CN2c3ccccc3Sc3ccccc32)c(C(F)(F)F)c1
Unit Name: nM
GI50: 546

Test Smiles: COc1ccc(CN2c3ccccc3CCc3ccccc32)cc1F
Unit Name: nM
GI50: 489

As a next step, examine the molecule that follows.
(Q) Suppose we examine the molecule `COc1ccc(CN2c3ccccc3Sc3ccccc32)cc1F` ; what GI50 value has been reported?
(A) 485

* * *

# Assay Text: Cytotoxicity against human Hs 578T cells assessed as growth inhibition at 10 uM after 48 hrs by SRB assay relative to control
# Assay type: functional
# Details: read-out: GI
Measurement Kind: inhibition of growth at 10 µM (%)
Report as a plain number; the unit % is understood.

# annotated cases, reported inhibition of growth at 10 µM shown
Test Smiles: COc1ccc(CN2c3ccccc3Oc3ccccc32)cc1F
Unit Name: %
Endpoint Result: 38
--
Test Smiles: COc1ccc(CN2c3ccccc3Oc3ccccc32)cc1O
Unit Name: %
Endpoint Result: 69
--
Test Smiles: COc1ccc(CN2c3ccccc3CCc3ccccc32)cc1F
Unit Name: %
Endpoint Result: 70
--
Test Smiles: COc1ccc(CN2c3ccccc3Sc3ccccc32)c(F)c1
Unit Name: %
Endpoint Result: 78
--
Test Smiles: COc1ccc(CN2c3ccccc3Sc3ccccc32)cc1F
Unit Name: %
Endpoint Result: 83
--
Test Smiles: COc1ccc(CN2c3ccccc3Sc3ccccc32)c(C(F)(F)F)c1
Unit Name: %
Endpoint Result: 77

(Q) State the recorded inhibition of growth at 10 µM for this entry: `COc1ccc(CN2c3ccccc3Sc3ccccc32)cc1O`
(A) 67

* * *

# Assay Text: Cytotoxicity against human A498 cells assessed as growth inhibition after 48 hrs by SRB assay
# Assay type: functional
# Details: A498, 48 h
Values of GI50 strictly less than 400 nM map to TRUE, and values of at least 400 nM map to FALSE.

Would you please look over these solved cases?
Molecule: COc1ccc(CN2c3ccccc3Sc3ccccc32)cc1F
Answer Label: TRUE

Molecule: COc1ccc(C(=O)c2cc(OC)c(OC)c(OC)c2)cc1O [PHENSTATIN]
Answer Label: FALSE

Molecule: COc1ccc(CN2c3ccccc3Sc3ccccc32)c(C(F)(F)F)c1
Answer Label: TRUE

(Q) Dear colleague, could you confirm whether GI50 of `COc1ccc(CN2c3ccccc3CCc3ccccc32)cc1F` falls below 400 nM? Thanks.
(A) TRUE

(Q) Dear reviewer, please state whether `COc1ccc(CN2c3ccccc3Sc3ccccc32)cc1O` has GI50 strictly beneath 400 nM.
(A) FALSE

* * *

# Assay Text: Cytotoxicity against human SF268 cells assessed as growth inhibition at 10 uM after 48 hrs by SRB assay relative to control
# Assay type: functional
# Details: SF-268, 48 h, read-out: GI
inhibition of growth at 10 µM overview
Kindly answer with a numeric value in %, unit omitted.

Test Smiles: COc1ccc(CN2c3ccccc3Oc3ccccc32)cc1O
Endpoint Result: 43

(Q) Give the measured inhibition of growth at 10 µM of `COc1ccc(CN2c3ccccc3Sc3ccccc32)cc1O` .
(A) 54

(Q) What does the data say about its inhibition of growth at 10 µM? Entry: `COc1ccc(CN2c3ccccc3Sc3ccccc32)c(C(F)(F)F)c1`
(A) 44

* * *

# Assay Text: Cytotoxicity against human Caki1 cells assessed as growth inhibition at 10 uM after 48 hrs by SRB assay relative to control
# Format: functional
# Details: CAKI-1, 48 h, read-out: GI
Measurement Kind: inhibition of growth at 10 µM (%)
Write it as a number; the unit % goes unstated.

Answered cases to consult:
Test Smiles: COc1ccc(CN2c3ccccc3Sc3ccccc32)c(F)c1
inhibition of growth at 10 µM, %: 78

Test Smiles: COc1ccc(CN2c3ccccc3CCc3ccccc32)cc1F
inhibition of growth at 10 µM, %: 70

Test Smiles: COc1ccc(CN2c3ccccc3Sc3ccccc32)cc1F
inhibition of growth at 10 µM, %: 46

(Q) Report inhibition of growth at 10 µM for `COc1ccc(CN2c3ccccc3Oc3ccccc32)cc1F` please.
(A) 41

(Q) Quick one: inhibition of growth at 10 µM for `COc1ccc(CN2c3ccccc3Sc3ccccc32)c(C(F)(F)F)c1` ?
(A) 67

(Q) Please give the measured inhibition of growth at 10 µM for this molecule: `COc1ccc(CN2c3ccccc3Sc3ccccc32)cc1O`
(A) 64

(Q) For the molecule `COc1ccc(CN2c3ccccc3Oc3ccccc32)cc1O` , what inhibition of growth at 10 µM is on record?
(A) 61

* * *

# Assay Text: Cytotoxicity against human SR cells assessed as growth inhibition after 48 hrs by SRB assay
# Type: functional
Measurement Kind: GI50 (nM)
Report only the number, with the unit nM understood.

Test Smiles: COc1ccc(CN2c3ccccc3Sc3ccccc32)cc1O
Endpoint Result: 407

Test Smiles: COc1ccc(CN2c3ccccc3CCc3ccccc32)cc1F
Endpoint Result: 463

Test Smiles: COc1ccc(CN2c3ccccc3Sc3ccccc32)c(C(F)(F)F)c1
Endpoint Result: 483

(Q) Name the recorded GI50 for `COc1ccc(CN2c3ccccc3Sc3ccccc32)c(F)c1` .
(A) 60

(Q) Give the measured GI50 of `COc1ccc(CN2c3ccccc3Sc3ccccc32)cc1F` .
(A) 354

* * *

GI50 by entry:
# Assay Text: Cytotoxicity against human SNB75 cells assessed as growth inhibition after 48 hrs by SRB assay
# Assay type: functional
# Details: SNB-75, 48 h
Provide only the numeric value, understood in µM.

Test Smiles: COc1ccc(CN2c3ccccc3Sc3ccccc32)c(C(F)(F)F)c1
Unit Name: µM
GI50: 0.241

Test Smiles: COc1ccc(CN2c3ccccc3CCc3ccccc32)cc1F
Unit Name: µM
GI50: 0.277

Test Smiles: COc1ccc(CN2c3ccccc3Sc3ccccc32)cc1F
Unit Name: µM
GI50: 0.204

Here is another compound to look at.
(Q) I have this compound here, `COc1ccc(CN2c3ccccc3Sc3ccccc32)cc1O` , and I need its recorded GI50.
(A) 0.18

* * *

# GI50 values compiled below
# Assay Text: Cytotoxicity against human CCRF-CEM cells assessed as growth inhibition after 48 hrs by SRB assay
# Type: functional
Unit nM implied. Number only.

Past entries and their recorded results:
Test Smiles: COc1ccc(CN2c3ccccc3Sc3ccccc32)c(C(F)(F)F)c1
GI50 [nM]: 454

Test Smiles: COc1ccc(CN2c3ccccc3Sc3ccccc32)cc1F
GI50 [nM]: 428

Test Smiles: COc1ccc(CN2c3ccccc3Sc3ccccc32)cc1O
GI50 [nM]: 411

Kindly consider the entry below.
(Q) For `COc1ccc(CN2c3ccccc3CCc3ccccc32)cc1F` , what is its reported GI50?
(A) 515

* * *

# Species: Ovis aries
# Assay Text: Inhibition of sheep brain tubulin polymerization at 100 uM by DAPI staining-based fluorimetric method relative to control
Everything with inhibition lower than 60% is label 0; everything else, including exactly 60%, is label 1.

Would you please look over these solved cases?
Test Smiles: COc1ccc(C(=O)c2cc(OC)c(OC)c(OC)c2)cc1O
Answer Label: label 1
//
Test Smiles: COc1ccc(CN2c3ccccc3Sc3ccccc32)c(F)c1
Answer Label: label 0
//
Test Smiles: COc1ccc(CN2c3ccccc3Sc3ccccc32)cc1O
Answer Label: label 1
//
Test Smiles: COc1ccc(Cn2c3ccccc3c(=O)c3ccccc32)cc1F
Answer Label: label 0
//
Test Smiles: COc1ccc(CN2c3ccccc3Oc3ccccc32)c(C(F)(F)F)c1
Answer Label: label 0

(Q) // inclusive: inhibition at least 60%? input: `COc1ccc(CN2c3ccccc3Sc3ccccc32)cc1F`
(A) label 1

(Q) Item `COc1ccc(CN2c3ccccc3Oc3ccccc32)cc1O` with inhibition of 60% or above?
(A) label 0

(Q) Hello, I need to know if `COc1cc([C@@H]2c3cc4c(cc3C[C@H]3COC(=O)[C@@H]32)OCO4)cc(OC)c1OC` has measured inhibition not below 60%. Thanks!
(A) label 1

(Q) Please indicate if the recorded inhibition for `COc1ccc(C(=O)N2c3ccccc3Sc3ccccc32)c(C(F)(F)F)c1` meets or exceeds 60%.
(A) label 1

(Q) Is it the case that `COc1ccc(CN2c3ccccc3Oc3ccccc32)cc1F` has inhibition reaching or exceeding 60%?
(A) label 0

* * *

# Assay Text: Cytotoxicity against human LOXIMVI cells assessed as growth inhibition at 10 uM after 48 hrs by SRB assay relative to control
# Format: functional
# Details: LOX IMVI, read-out: GI
Measurement Kind: inhibition of growth at 10 µM
Write the numeric value and append its unit.

Worked examples follow.
Test Smiles: COc1ccc(CN2c3ccccc3Oc3ccccc32)cc1F
Endpoint Result: 41%

Test Smiles: COc1ccc(CN2c3ccccc3Sc3ccccc32)c(F)c1
Endpoint Result: 47%

Test Smiles: COc1ccc(CN2c3ccccc3Sc3ccccc32)c(C(F)(F)F)c1
Endpoint Result: 45%

Test Smiles: COc1ccc(CN2c3ccccc3Sc3ccccc32)cc1F
Endpoint Result: 60%

Test Smiles: COc1ccc(CN2c3ccccc3CCc3ccccc32)cc1F
Endpoint Result: 50%

(Q) Could you share which inhibition of growth at 10 µM value was measured for `COc1ccc(CN2c3ccccc3Sc3ccccc32)cc1O` ?
(A) 57%

(Q) Which value of inhibition of growth at 10 µM has been reported for `COc1ccc(CN2c3ccccc3Oc3ccccc32)cc1O` in the records?
(A) 61%
